Where do these numbers come from? They come from a melting point compilation (Tetko et al.; mined from patent text by program, amines drawn as free bases though some values may be those of a salt).

quantity: melting point

compound: CN1C(=O)CCC1(O)c1ccc(Cl)c(S(=O)(=O)Cl)c1 (stereo unspecified)
melting point: 112 to 114 °C
--
compound: CCCCCc1c(C(C)C)nc(C(C)C)c(C(O)CCCC)c1-c1ccc(F)cc1 (stereo unspecified)
melting point: 66 to 68 °C
--
compound: C#CCOCC(CC)(OC)c1cccc(OCc2ccc3ccccc3c2)c1 (stereo unspecified)
melting point: 54 °C
--
compound: CC(C)C(=O)NC1C=CC(CO)C1 (stereo unspecified)
melting point: 80 to 81 °C
--
compound: CC(=O)NC(n1cncn1)C(Cl)(Cl)CCl (stereo unspecified)
melting point: 135 °C

Report melting point for every entry below.
1. CS(=O)c1ncc2cc(Cl)c(N)nc2n1 (stereo unspecified)
2. CCCc1nc2c(N)nc3cc(OCCNS(C)(=O)=O)ccc3c2s1
3. CC(C)(C)C(=O)Nc1nc(CN2CCC(c3c[nH]c4ccccc34)CC2)cs1
4. COc1ccc2c(c1)C(C(=O)O)CCO2 (stereo unspecified)
5. CCN1c2ncc(CCc3cccc(N)c3)cc2C(=O)N(C)c2cccnc21
6. CN(C)c1ccc(C=CC(=O)c2ccc3c(c2)CCCC3)cc1

260 to 262 °C
148 to 151 °C
93 to 96 °C
97.4 °C
129 to 131 °C
134 to 135 °C
